These entries and their values trace back to patent US20220378931A1.

Listing of recorded Kd by entry.
- measurementTarget: T1, dog serum albumin (dog, UniProt P49822 25-608)
- T1 construct: bought protein, amine-coupled to a CM5 chip; also called Dog SA
- methodSummary: SPR (Biacore 8K), albumin immobilised, 25 C, 1:1 kinetics
Use µM as the unit, but write only the number.

# count of solved cases: 4
INS Analog 30 (other, single-chain insulin B-L2-A-L1-VHH fusion; also called Ex. 30) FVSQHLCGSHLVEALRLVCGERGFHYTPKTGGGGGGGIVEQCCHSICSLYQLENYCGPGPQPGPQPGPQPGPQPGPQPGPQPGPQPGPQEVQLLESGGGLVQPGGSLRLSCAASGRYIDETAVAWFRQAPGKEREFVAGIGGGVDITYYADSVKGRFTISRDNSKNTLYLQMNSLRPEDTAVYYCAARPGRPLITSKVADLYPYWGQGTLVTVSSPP : 0.013
INS Analog 29 (other, single-chain insulin B-L2-A-L1-VHH fusion; also called Ex. 29) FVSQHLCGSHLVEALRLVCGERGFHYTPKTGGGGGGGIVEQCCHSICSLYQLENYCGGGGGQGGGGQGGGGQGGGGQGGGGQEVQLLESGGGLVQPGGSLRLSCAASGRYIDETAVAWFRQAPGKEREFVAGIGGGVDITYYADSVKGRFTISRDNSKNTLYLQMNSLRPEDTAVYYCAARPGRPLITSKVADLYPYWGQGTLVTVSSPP : 0.016
INS Analog 23 (other, single-chain insulin B-L2-A-L1-VHH fusion; also called Ex. 23) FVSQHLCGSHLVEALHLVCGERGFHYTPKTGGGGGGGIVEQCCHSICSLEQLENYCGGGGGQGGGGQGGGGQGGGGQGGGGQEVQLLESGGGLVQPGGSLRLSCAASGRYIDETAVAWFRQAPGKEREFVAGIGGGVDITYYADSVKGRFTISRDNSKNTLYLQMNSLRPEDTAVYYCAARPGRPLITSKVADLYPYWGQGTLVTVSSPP : 0.023
INS Analog 27 (other, single-chain insulin B-L2-A-L1-VHH fusion; also called Ex. 27) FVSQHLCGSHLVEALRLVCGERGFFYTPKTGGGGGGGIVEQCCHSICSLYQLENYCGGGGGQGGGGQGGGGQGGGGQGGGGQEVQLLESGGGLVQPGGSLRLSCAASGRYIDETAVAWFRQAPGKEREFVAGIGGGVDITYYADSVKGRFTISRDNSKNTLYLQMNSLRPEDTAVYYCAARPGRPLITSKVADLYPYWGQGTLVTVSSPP : 0.017

Query block: What value of measured Kd is listed for INS Analog 24 (other, single-chain insulin B-L2-A-L1-VHH fusion; also called Ex. 24) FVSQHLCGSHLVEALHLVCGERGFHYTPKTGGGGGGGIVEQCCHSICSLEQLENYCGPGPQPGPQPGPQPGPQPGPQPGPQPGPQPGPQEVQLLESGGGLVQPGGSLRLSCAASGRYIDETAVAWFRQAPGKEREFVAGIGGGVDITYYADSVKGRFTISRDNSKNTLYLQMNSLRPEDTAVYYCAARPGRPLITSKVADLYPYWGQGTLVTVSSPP ?
Result block: 0.016

Query block: Which Kd reading was recorded for the binder INS Analog 26 (other, single-chain insulin B-L2-A-L1-VHH fusion; also called Ex. 26) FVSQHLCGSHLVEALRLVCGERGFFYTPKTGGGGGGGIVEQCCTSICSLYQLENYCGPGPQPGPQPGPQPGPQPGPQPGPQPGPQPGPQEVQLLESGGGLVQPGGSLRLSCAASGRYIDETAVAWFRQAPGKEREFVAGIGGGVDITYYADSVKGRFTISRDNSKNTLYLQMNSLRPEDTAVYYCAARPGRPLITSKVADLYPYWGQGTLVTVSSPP ?
Result block: 0.013

Query block: Which value of Kd has been reported for INS Analog 28 (other, single-chain insulin B-L2-A-L1-VHH fusion; also called Ex. 28) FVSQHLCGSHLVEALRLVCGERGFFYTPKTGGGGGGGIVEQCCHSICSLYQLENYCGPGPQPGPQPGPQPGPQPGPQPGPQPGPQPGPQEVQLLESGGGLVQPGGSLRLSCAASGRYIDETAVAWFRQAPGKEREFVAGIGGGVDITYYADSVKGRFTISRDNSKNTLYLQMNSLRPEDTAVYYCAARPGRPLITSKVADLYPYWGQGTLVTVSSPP in the records?
Result block: 0.012
